assay: Primary qHTS for delayed death inhibitors of the malarial parasite plastid, 48 hour incubation; further: potency means the concentration at half of the fitted maximal effect; details: P. falciparum luciferase growth in erythrocytes; series mostly up to 28.7 µM
Hit rate of the full screen: of about 310,000 compounds, about 18,000 (5.8%) were called active. Not shown: some 22% with an inconclusive outcome. Many of the other results were omitted from the sample, so actives are more common in it than they were.
recorded-metric: Potency

Answered cases to consult:
compound	recorded-measurement
CN(C)CCCNc1c2c(c(C#N)c3nc4ccccc4n13)CCC2	inactive
CCCc1nnc(NC(=O)CCC(=O)N2CCN(S(=O)(=O)c3ccc(OC)cc3)CC2)s1	inactive
Cc1ccc2nc3n(c(=O)c2c1)CCC3	inactive
COc1ccc(C(=O)NC2CCN(C(=S)Nc3ccccc3)CC2)cc1	inactive
COc1c(C)cc(C(=O)C2CCCN(S(=O)(=O)c3c(C)noc3C)C2)cc1C (stereo not given)	9.28 µM (active)

Q. Potency lookup needed for `COc1ccccc1CNC(=O)COC(=O)CNS(=O)(=O)c1ccc(NC(C)=O)cc1` , thanks.
A. inactive

Q. Potency lookup needed for `Cc1ccc(NC(=O)CN2CCc3ccccc3C2)cc1C` , thanks.
A. inactive

Q. Potency lookup needed for `COc1ccc(NC(=O)Cn2ncn3c(cc4ccccc43)c2=O)c(OC)c1OC` , thanks.
A. 10.4 µM (active)

Q. Potency lookup needed for `S=C(Nc1ccc(Br)cc1)NC1CCN(Cc2ccccc2)CC1` , thanks.
A. 11.7 µM (active)

Q. Potency lookup needed for `Cn1cccc1C(=O)NNC(=O)COc1ccc(Br)cc1` , thanks.
A. inactive

Q. Potency lookup needed for `CN(CCc1cnn(C)c1)Cc1cn(C)nc1-c1ccccc1F` , thanks.
A. inactive

Q. Potency lookup needed for `CCc1ccc(NC(=O)Cn2nnc(C(=O)NCc3ccc4c(c3)OCO4)c2N)cc1` , thanks.
A. inactive

Q. Potency lookup needed for `O=C(O)/C=C/c1ccc(OCCCF)cc1` , thanks.
A. inactive

Q. Potency lookup needed for `CCN1CCN(c2ccc([N+](=O)[O-])cc2C(=O)c2ccc(Cl)cc2)CC1` , thanks.
A. inactive

Q. Potency lookup needed for CCn1nc(C)c(CNC(=O)C2CCC(=O)N(Cc3cccc(F)c3)C2)c1C (stereo not given) , thanks.
A. inactive

Q. Potency lookup needed for `CN1c2ccc(C=O)c3c(C=O)ccc(c23)N(C)C1(C)C` , thanks.
A. 11.7 µM (active)

Q. Potency lookup needed for Cc1cc(NS(=O)(=O)c2ccc(NC(=O)C(C)Oc3cccc(C)c3C)cc2)nc(C)n1 (stereo not given) , thanks.
A. inactive

Q. Potency lookup needed for `CCOCCCNC(=O)c1cc2c(=O)n3ccccc3nc2s1` , thanks.
A. inactive

Q. Potency lookup needed for `COc1ccc(N2CCN(c3ccc([N+](=O)[O-])cc3Cl)CC2)cc1` , thanks.
A. inactive

Q. Potency lookup needed for `Cc1ccc2nc(C)c3c(c2c1)N(c1ccccc1)CC3` , thanks.
A. 5.86 µM (active)
